Data provenance is patent US11053204B2.

Test system: kochia (Kochia scoparia)
Test: Test A preemergence, visual injury rating
Type: in vivo
Conditions: 125 g ai/ha, 0 to 100 scale (0 no effect, 100 complete control)
reported-metric: Plant response rating, Kochia
Kindly provide the number alone.

Inquiry: Using the record for CC(=NOC(C)C)c1c(Br)cccc1Oc1ncc(Cl)cn1 , report its Plant response rating, Kochia.
Reply text: 0

Inquiry: Here is the next compound: N#CC(CCCC(F)(F)F)c1ccccc1Oc1ncc(Cl)cn1 (stereo not shown)
Reply text: 100

Inquiry: Here is the next compound: O=C(CCC(F)(F)C(F)(F)F)c1c(Br)cccc1Oc1ncc(Cl)cn1
Reply text: 100

Inquiry: Here is the next compound: N#Cc1cccc(Oc2ncc(Cl)cn2)c1C(=O)CCCCC(F)(F)F
Reply text: 0

Inquiry: Here is the next compound: O=C(OCCC(F)(F)F)c1c(OCC(F)(F)F)cccc1Oc1ncc(Cl)cn1
Reply text: 0

Inquiry: Here is the next compound: COc1cccc(Oc2ncc(Cl)cn2)c1C(=O)OCCC(F)(F)F
Reply text: 50

Inquiry: Here is the next compound: O=C(OCC(Cl)CCl)c1c(Br)cccc1Oc1ncc(Cl)cn1 (stereo not shown)
Reply text: 0

====

Tested on: soybean (Glycine max)
Test: Test C preemergence, plant response rating
Assay type: in vivo
Conditions: Preemergence; 62 g ai/ha; scale 0 to 100
Excerpt: […]
reported-metric: Plant response rating, Soybean
Kindly provide the number alone.

Inquiry: Using the record for N#Cc1cccc(Oc2ncc(Cl)cn2)c1CCCC(F)(F)F , report its Plant response rating, Soybean.
Reply text: 15

Inquiry: Here is the next molecule: O=C(CCCC(F)(F)F)c1c(Br)cccc1Oc1ncc(Cl)cn1
Reply text: 15

Inquiry: Here is the next molecule: CCCCC(=O)c1c(Br)cccc1Oc1ncc(Cl)cn1
Reply text: 5

====

System: pigweed (Amaranthus retroflexus)
Test: Test A postemergence, visual injury rating
Format: in vivo
Settings: 31 g ai/ha, 0 to 100 scale, 0 is no effect, 100 is complete control, approximately 10 days
reported-metric: Pigweed plant response rating
Kindly provide the number alone.

Inquiry: Using the record for CC(C)Oc1cccc(Oc2ncc(Cl)cn2)c1C(=O)OCCC(F)(F)F , report its Pigweed plant response rating.
Reply text: 10

Inquiry: Here is the next compound: CCCCC(C#N)c1c(Br)cccc1Oc1ncc(Cl)cn1 (stereo not drawn)
Reply text: 50

Inquiry: Here is the next compound: O=C(OCC(F)(F)C(F)(F)F)c1c(F)cccc1Oc1ncc(Br)cn1
Reply text: 0

====

Test system: barnyardgrass (Echinochloa crus-galli)
Test: Test A postemergence, visual injury rating
Assay type: in vivo
Conditions: 31 g ai/ha, 0 to 100 scale, 0 is no effect, 100 is complete control, approximately 10 days
reported-metric: Barnyardgrass plant response rating
Kindly provide the number alone.

Inquiry: # returns recorded Barnyardgrass plant response rating (system: barnyardgrass (Echinochloa crus-galli)) for N#Cc1cccc(Oc2ncc(Cl)cn2)c1C(=O)CCCCC(F)(F)F [Compound 109]
Reply text: 0

Inquiry: Here is the next compound: C=CC(C)COC(=O)c1c(Br)cccc1Oc1ncc(Cl)cn1 (centres unmarked) [Compound 37]
Reply text: 0

Inquiry: Here is the next compound: O=C(OCC(F)(F)C(F)(F)F)c1c(F)cccc1Oc1ncc(Cl)cn1 [Compound 5]
Reply text: 0

Inquiry: Here is the next compound: N#Cc1cccc(Oc2ncc(Cl)cn2)c1COCCC(F)(F)F [Compound 80]
Reply text: 30

Inquiry: Here is the next compound: O=C(CCCC(F)(F)F)c1c(Br)cccc1Oc1ncc(Cl)cn1 [Compound 77]
Reply text: 30

Inquiry: Here is the next compound: N#Cc1cccc(Oc2ncc(Cl)cn2)c1C(=O)CCC(F)(F)C(F)(F)F [Compound 111]
Reply text: 0

Inquiry: Here is the next compound: CC(=NOC(C)C)c1c(Br)cccc1Oc1ncc(Cl)cn1 [Compound 105]
Reply text: 0

Inquiry: Here is the next compound: O=C(OCCC(F)(F)F)c1cc(Cl)ccc1Oc1ncc(Cl)cn1 [Compound 88]
Reply text: 0

====

System: barnyardgrass (Echinochloa crus-galli)
Assay: Test A preemergence, visual injury rating
Assay type: in vivo
Conditions: 31 g ai/ha, 0 to 100 scale, 0 no effect, 100 complete control
Would you kindly list Plant response rating, Barnyardgrass for each of these compounds?
Kindly provide the number alone.

Inquiry: Using the record for O=C(CCC(F)(F)C(F)(F)F)c1c(Br)cccc1Oc1ncc(Cl)cn1 , report its Plant response rating, Barnyardgrass.
Reply text: 40

Inquiry: Here is the next compound: O=C(OCCC(F)(F)F)c1cc(Br)ccc1Oc1ncc(Cl)cn1
Reply text: 0

Inquiry: Here is the next compound: FC(F)(F)C(F)(F)COCc1c(Br)cccc1Oc1ncc(Cl)cn1
Reply text: 40

====

Test system: giant foxtail (Setaria faberii)
Assay: Test A preemergence, visual injury rating
Assay type: in vivo
Conditions: 31 g ai/ha, 0 to 100 scale, 0 no effect, 100 complete control
Would you kindly list Plant response rating, Foxtail, Giant for each of these compounds?
Kindly provide the number alone.

Inquiry: Using the record for O=C(OCC(F)(F)C(F)F)c1c(Br)cccc1Oc1ncc(Cl)cn1 , report its Plant response rating, Foxtail, Giant.
Reply text: 10

Inquiry: Here is the next compound: FC(F)(F)CCCc1c(Br)cccc1Oc1ncc(Cl)cn1
Reply text: 10

Inquiry: Here is the next compound: C=C(C)CCOC(=O)c1c(Br)cccc1Oc1ncc(Cl)cn1
Reply text: 10

====

Tested on: barnyardgrass (Echinochloa crus-galli)
Assay: Test A postemergence, visual injury rating
Format: in vivo
Conditions: 125 g ai/ha, 0 to 100 scale, 0 is no effect, 100 is complete control, approximately 10 days
Would you kindly list Barnyardgrass plant response rating for each of these molecules?
Kindly provide the number alone.

Inquiry: Using the record for CCON=C(C)c1c(Br)cccc1Oc1ncc(Cl)cn1 , report its Barnyardgrass plant response rating.
Reply text: 30

Inquiry: Here is the next molecule: O=C(OCCC(F)(F)F)c1c(OCC(F)(F)F)cccc1Oc1ncc(Cl)cn1
Reply text: 10

Inquiry: Here is the next molecule: Cc1cccc(Oc2ncc(Cl)cn2)c1C(=O)OCCC(F)(F)F
Reply text: 80

Inquiry: Here is the next molecule: CCCC(C#N)c1c(Br)cccc1Oc1ncc(Cl)cn1 (stereo not drawn)
Reply text: 10

Inquiry: Here is the next molecule: O=C(OCCC1CC1)c1c(Br)cccc1Oc1ncc(Cl)cn1
Reply text: 50

Inquiry: Here is the next molecule: O=C(SCC(F)(F)F)c1c(Br)cccc1Oc1ncc(Cl)cn1
Reply text: 0

Inquiry: Here is the next molecule: CC(=NOC(C)C)c1c(Cl)cccc1Oc1ncc(Cl)cn1
Reply text: 0

Inquiry: Here is the next molecule: CCCCc1c(C#N)cccc1Oc1ncc(Cl)cn1
Reply text: 40

Inquiry: Here is the next molecule: O=C(CCC(F)(F)C(F)(F)F)c1c(Br)cccc1Oc1ncc(Cl)cn1
Reply text: 60

Inquiry: Here is the next molecule: FC(F)(F)CCCc1c(Br)cccc1Oc1ncc(Cl)cn1
Reply text: 90

Inquiry: Here is the next molecule: N#Cc1cccc(Oc2ncc(Cl)cn2)c1NCCCC(F)(F)F
Reply text: 90

Inquiry: Here is the next molecule: O=C(OCCC(F)(F)F)c1cc(Br)ccc1Oc1ncc(Cl)cn1
Reply text: 0

====

Would you kindly list Barnyardgrass plant response rating for each of these compounds?
Test system: barnyardgrass (Echinochloa crus-galli)
Experiment: Test A preemergence, visual injury rating
Format: in vivo
Conditions: 500 g ai/ha, 0 to 100 scale (0 no effect, 100 complete control)
Kindly provide the number alone.

Inquiry: # returns recorded Barnyardgrass plant response rating (system: barnyardgrass (Echinochloa crus-galli)) for N#CCCOC(=O)c1c(Br)cccc1Oc1ncc(Cl)cn1
Reply text: 100

Inquiry: Here is the next compound: C=CCSC(=O)c1c(Br)cccc1Oc1ncc(Cl)cn1
Reply text: 100

Inquiry: Here is the next compound: O=C(OCC(F)(F)F)c1c(Br)cccc1Oc1ncc(Br)cn1
Reply text: 90

====

Would you kindly list Ryegrass, Italian plant response rating for each of these compounds?
Test system: Italian ryegrass (Lolium multiflorum)
Test: Test A preemergence, visual injury rating
Assay type: in vivo
Details: 125 g ai/ha, 0 to 100 scale (0 no effect, 100 complete control)
Kindly provide the number alone.

Inquiry: Using the record for CCCSC(=O)c1c(Br)cccc1Oc1ncc(Cl)cn1 , report its Ryegrass, Italian plant response rating.
Reply text: 0

Inquiry: Here is the next compound: N#CCCOC(=O)c1c(Br)cccc1Oc1ncc(Cl)cn1
Reply text: 0

Inquiry: Here is the next compound: CC(C)=CCOC(=O)c1c(Br)cccc1Oc1ncc(Cl)cn1
Reply text: 0

Inquiry: Here is the next compound: O=C(OCCCl)c1c(Br)cccc1Oc1ncc(Cl)cn1
Reply text: 0

Inquiry: Here is the next compound: O=C(OC1CCCC1)c1c(Br)cccc1Oc1ncc(Cl)cn1
Reply text: 0

Inquiry: Here is the next compound: C=CC(C)COC(=O)c1c(Br)cccc1Oc1ncc(Cl)cn1 (stereo not shown)
Reply text: 0

Inquiry: Here is the next compound: O=C(SCC(F)(F)F)c1c(Br)cccc1Oc1ncc(Cl)cn1
Reply text: 0

Inquiry: Here is the next compound: O=C(OCC1CCC1)c1c(Br)cccc1Oc1ncc(Cl)cn1
Reply text: 0

Inquiry: Here is the next compound: CN(OCC(F)(F)F)C(=O)c1c(Br)cccc1Oc1ncc(Br)cn1
Reply text: 0

Inquiry: Here is the next compound: FC(F)(F)CCCc1c(Br)cccc1Oc1ncc(Cl)cn1
Reply text: 20

Inquiry: Here is the next compound: O=C(OC/C=C/C(F)(F)F)c1c(Br)cccc1Oc1ncc(Cl)cn1
Reply text: 0

Inquiry: Here is the next compound: CCC(C)OC(=O)c1c(Br)cccc1Oc1ncc(Cl)cn1 (stereo not shown)
Reply text: 0

Inquiry: Here is the next compound: O=C(OCCC(F)(F)F)c1c(Br)cccc1Oc1ncc(Br)cn1
Reply text: 40
